# methodNotes: qHTS for Inhibitors of Inflammasome Signaling: IL-1-beta AlphaLISA Primary Screen
# appliedConditions: THP-1 LPS/ATP IL-1B secretion, 16 h; at 57.5 µM, hits give low values
# Description: Inflammasomes are a set of intracellular multi-protein complexes that enable autocatalytic activation of inflammatory caspases and drive the innate immune response to counter harmful agents. […] A qHTS assay, based on AlphaLISA technology, was developed to screen the Molecular Libraries Small Molecule Repository (MLSMR) to look for novel inflammasome inhibitors. The assay detects IL-1B using AlphaLISA anti-IL-1B acceptor and donor beads. […]
The whole screen tested about 360,000 compounds, of which about 17,000 (4.7%) were called active. Inconclusive results (about 5%) are left out. The sample holds actives, similar compounds and a random draw of the others, so the mix is not that of the screen.
Range-based classes on measured activity change: bottom range (below -20%), center range (-20% to below 10%), top range (10% or more)

compound: Cc1ccc(S(=O)(=O)CCC(=O)OCC(=O)N(C)Cc2ccccc2)cc1
categoryLabel: center range
//
compound: O=C(CCCCCn1c(=S)[nH]c2ccsc2c1=O)NC1CCCCC1
categoryLabel: center range
//
compound: COc1cccc2sc(N(CCCN(C)C)C(=O)CCS(=O)(=O)c3ccccc3)nc12
categoryLabel: bottom range

Entry CC(=O)OCC(C)n1c(=O)c2ccccc2n1C(C)=O (configuration not stated) belongs to which category? top range

Entry Cc1cccc2sc(N(CCCN(C)C)C(=O)CCS(=O)(=O)c3ccccc3)nc12 belongs to which category? bottom range

Entry Cc1ccc(-c2noc(CSc3nnc(-c4cccs4)n3C)n2)cc1 belongs to which category? top range

This collection of values is drawn from PubChem BioAssay AID743279.
